ASSAY_COMMENT: NCI Yeast Anticancer Drug Screen. Data for the sgs1 mgt1 strain (AID 161);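 also: 0% = growth of cultures given vehicle only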
COND: S. cerevisiae sgs1 mgt1 strain, at 50.0 µM, hits give high values
This is part of a sample that, as a whole, favours compounds with a hit. Of some 79,000 tested, about 15% had one in any assay.
In this section, each of the molecules is paired with its reported growth inhibition.
Return type: number; implicit unit %.

Requested read-out: growth inhibition. Entry: N/N=C(/C(=O)Nc1cccc(Cl)c1)C(C(=O)c1ccc(O)cc1O)C1OC(=O)c2ccccc21 (stereo not given)
-8.1

---
What does the data say about its growth inhibition? Entry: CN=C1CC2CCCC1C2 (stereo not given)
-5.8

# lookup: growth inhibition of O=C(O)Cc1cc(I)c(Oc2ccc(O)cc2)c(I)c1
6.05

What measured growth inhibition goes with CCC(C)C(C)O (stereo not given) ?
2.9

Value lookup for growth inhibition; key = O=C(Nc1ccccc1CCl)Nc1ccccc1CCl
-15.8

* * *

Here the recorded growth inhibition is given for each entry.
ASSAY_COMMENT: NCI Yeast Anticancer Drug Screen. Data for the rad50 strain (AID 155);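 also: 0% = growth of vehicle-only cultures of the same strain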
COND: S. cerevisiae rad50 strain growth inhibition; at 50.0 µM; hits give high values
The panel holds about 79,000 compounds, 15% with a hit somewhere; the sample as a whole holds those more often. Active and inactive are the calls of the source. No stated cut-off is given here; in the data, active means growth inhibition above about 70%; inactive means the rest.

// returns reported growth inhibition for input COc1cc2c(c(OC)c1OC)-c1c(cc3c(c1OC)OCO3)C1OC2C(C)C1C (stereo not drawn) (tested in a mixture with another compound)
-23.6% (inactive)

Report growth inhibition for O=C(O)c1cc(=O)c2c([nH]c3ccccc32)s1 please.
-4.9% (inactive)

Name the recorded growth inhibition for O=C1NC(=S)N/C1=C/c1ccc2c(c1)CCC2 .
13.9% (inactive)

Requested read-out: growth inhibition. Entry: CC(=O)Nc1cc(Cl)c(Oc2ccccc2)cc1[N+](=O)[O-]
19.2% (inactive)

Can you share its growth inhibition? I mean this molecule: Cc1cc(S(N)(=O)=O)c(SCc2nc(N)nc(N(C)C)n2)cc1Cl
-30.8% (inactive)

Requested read-out: growth inhibition. Entry: CCC1c2c(cc(=O)[nH]c2O)C(=O)N1C (stereo not drawn)
9.5% (inactive)

Others:
Could you tell me which growth inhibition is on file for C(=C/c1ccccc1)/CN1CCCCC1 ?
29.4% (inactive)

// lookup growth inhibition for CCC1(c2ccccc2)CCCC/C1=N/NC(N)=O (stereo not drawn)
2.55% (inactive)

* * *

ASSAY_COMMENT: NCI Yeast Anticancer Drug Screen. Data for the mlh1 rad18 strain (AID 175)
COND: S. cerevisiae mlh1 rad18 strain growth inhibition; at 50.0 µM; hits give high values
Compounds without any hit were thinned out: in the full panel of roughly 79,000, 15% have a hit.
This section presents compounds with their documented growth inhibition values.
Write the value in % as a bare number.

Consider the compound shown here: CC(C)(C)OC(=O)CC(NC(=O)OC(C)(C)C)C(=O)N[C@@H]1CCCC[C@H]1C(=O)OCc1ccccc1 (stereo partly specified) What is its recorded growth inhibition?
23.1

Endpoint output: growth inhibition of O=[N+]([O-])c1ccc(/C(CBr)=N/N2CCCCCC2)cc1 . Value?
-4.55

What does the data say about its growth inhibition? Entry: CC(C)NC(=O)c1ccccc1Sc1ccccc1CN(C)C(C)C
6.75

// query growth inhibition value for entry O=C1/C(=C\C=C\c2ccccc2)CCC/C1=C/C=C/c1ccccc1
3.1

Which measured growth inhibition value corresponds to CN(c1ccccc1Cl)S(=O)(=O)c1ccccc1[N+](=O)[O-] ?
2.95

Continuing:
I have this compound here, NC(Cc1c[nH]c2ccc([N+](=O)[O-])cc12)C(=O)O (stereo unspecified) , and I need its recorded growth inhibition.
-7.7

* * *

ASSAY_COMMENT: NCI Yeast Anticancer Drug Screen. Data for the bub3 strain (AID 167)
COND: S. cerevisiae bub3 mutant strain, at 50.0 µM, hits give high values
The panel holds about 79,000 compounds, 15% with a hit somewhere; the sample as a whole holds those more often.
The following compounds are shown together with reported growth inhibition values.
Write the value in % as a bare number.

Requested read-out: growth inhibition. Entry: CN1N=Nc2ccccc2C1(O)c1ccccc1 (configuration not stated)
-11.9

Given O=C(Nc1ccc(F)cc1)C(=O)C(C(=O)c1ccccc1F)C1OC(=O)c2ccccc21 (configuration not stated) , state its recorded growth inhibition.
-0.35

Recorded growth inhibition of Oc1c(O)c(Cc2ccccc2)c(Cc2ccccc2)c(Cc2ccccc2)c1Cc1ccccc1 , please.
-7.15

Item under review: CCOC(=O)c1ccc(NC(=O)Nc2ccc(OC)c([N+](=O)[O-])c2)cc1 . Reported growth inhibition?
17.8

* * *

ASSAY_COMMENT: NCI Yeast Anticancer Drug Screen. Data for the bub3 strain (AID 167)
COND: S. cerevisiae bub3 mutant strain, at 50.0 µM
Compounds without any hit were thinned out: in the full panel of roughly 79,000, 15% have a hit. Activity calls are given as the source filed them. No stated cut-off is given here; in the data, active means growth inhibition above about 70%; inactive means the rest.
Your answer must be one of the following: active, inactive

Use the examples below as a reference point.
# fetch the recorded call for CCCCCCCCCCCCCCCCCC(=O)O here
inactive

Called result for CCOC(=O)c1[nH]c2nc(N)ncc2c(=O)c1C
inactive

Which outcome did this test record for the compound COc1cc(C)cc2c1C(=O)C(Br)=CC2=O ?
active

Which result was noted for this compound in the test: CCCCCCCCCC(C(=O)OCC)(C(=O)OCC)C1CCCC1
inactive

Could you please tell me the result logged for COc1ccc(Cl)cc1NC(=O)c1cccc([N+](=O)[O-])c1 in this assay?
inactive

Consider now this further compound.
Write down the call the test reported for this compound. Item: CC(C)/C=N/N=C/C(C)C
inactive

* * *

ASSAY_COMMENT: NCI Yeast Anticancer Drug Screen. Data for the bub3 strain (AID 167)
COND: S. cerevisiae bub3 mutant strain, at 50.0 µM, hits give high values
This is part of a sample that, as a whole, favours compounds with a hit. Of some 79,000 tested, about 15% had one in any assay.
PARAMETER_MEASURED: growth inhibition (%)
Write it as a number; the unit % goes unstated.

// lookup growth inhibition for O=C(Nc1ccccc1)C1(Cl)CCCCC1
-4.7

* * *

ASSAY_COMMENT: NCI Yeast Anticancer Drug Screen. Data for the mec2-1 strain (AID 157)
COND: S. cerevisiae mec2-1 strain, at 50.0 µM, hits give high values
This is part of a sample that, as a whole, favours compounds with a hit. Of some 79,000 tested, about 15% had one in any assay.
PARAMETER_MEASURED: growth inhibition (%)
Reply with just the number (in %).

See these solved cases before continuing.
Entry O=C(Nc1cc2c(cc1[N+](=O)[O-])-c1c(F)cccc1C2)C(F)(F)F has what growth inhibition?
1.4

Can you share its growth inhibition? I mean this molecule: O=c1c2ccccc2c(Cc2ccccc2)nn1C1CCCCCC1
2

Looking for the measured growth inhibition of CCCCOC(=O)C1CSSCC(NC(C)=O)C(=O)N1 (stereo not drawn) , can you help?
-7.35

Endpoint output: growth inhibition of C/C(CC(C)(C)C)=N/NS(=O)(=O)c1ccc(C)cc1 . Value?
-1.6

Could you tell me which growth inhibition is on file for C[C@H]1C[C@](C)(CO)Oc2oc3ccccc3c(=O)c21 ?
10.3

Using the record for CC(=O)CC(=O)NCc1ccc2c(c1)OCO2 , report its growth inhibition.
-9.2

Further cases:
Consider the molecule shown here: CCOC(=O)CN(C)C#N What is its recorded growth inhibition?
-33.3

// lookup growth inhibition for CCOc1ccc(Nc2ccc3c(O)cc(S(=O)(=O)O)cc3c2)cc1
-7.35

Requested field: growth inhibition. Item: Cc1nc2cccc([N+](=O)[O-])c2c(O)[n+]1C
-10.8

Find the recorded growth inhibition belonging to CC1(C)CS(=O)(=O)C(=O)N1CCC(=O)O and report it.
15.4

Name the recorded growth inhibition for CC(C)=Nn1cnc(C(=N)C#N)c1N .
3.5

Give the measured growth inhibition of N#Cc1nc[nH]c1C(N)=O .
0.25

Fill in the blank: the reported growth inhibition of CC(/C=C/c1ccccc1)=N\NC(=S)N/N=C(C)/C=C/c1ccccc1 is ____.
37.6

Look up growth inhibition: COC(=O)/C(C#N)=C/c1ccco1
6.65

I am curious: what growth inhibition value has been reported for COC(=O)CNC(=O)C(Cc1ccccc1)NC(=O)OCc1ccccc1 (stereo not drawn) ?
-3.75

* * *

ASSAY_COMMENT: NCI Yeast Anticancer Drug Screen. Data for the mlh1 rad18 strain (AID 175)
COND: S. cerevisiae mlh1 rad18 strain growth inhibition; at 50.0 µM; hits give high values
About 79,000 compounds went through this panel and 15% of them were active in at least one assay; those are over-represented in the sample as a whole.
molecules and their reported growth inhibition
Please state the figure in %; there is no need to write the unit.

Examples with answers:
For CCCCCCCCN(CCCCCCCC)CC(O)c1cc(-c2ccccc2)nc2c(-c3ccccc3)cccc12 (centres undefined) , what is its reported growth inhibition?
48.5

// returns reported growth inhibition for input NC(=O)Cn1c(=O)[nH]c(=O)c2[nH]cnc21
6.85

Looking for the measured growth inhibition of c1ccc2c(c1)ccc1cccc[n+]12 , can you help?
-36.6

Consider the molecule OCCn1nnc2ccccc21 and give its measured growth inhibition.
-3.7

# get_value(readout='growth inhibition', item= CNC(=O)Nc1ccc(C(=O)OCC(C)C)cc1 )
7.45

Further cases:
Quick check: growth inhibition of CCCCCc1[nH]c(=O)[nH]c(=O)c1S(=O)(=O)N1CCCCC1 ?
18.2

Form field: reported growth inhibition of O=C(CN=C(CN(c1ccccc1)c1ccccc1)Oc1c(Cl)cc(Cl)cc1Cl)N1c2ccccc2Sc2ccccc21
7.8

Given the molecule C=CCC1CCC/C1=N\O (centres undefined) , what is its reported growth inhibition?
3.9

Looking for the measured growth inhibition of O=c1nc(Oc2ccccc2)nc2ccc(Cl)nn12 , can you help?
3.1

Return reported growth inhibition; argument: N#CCc1c(-c2ccccn2)[nH]c2ccccc12
12

Any idea what growth inhibition was measured for c1ccc(Cn2ccnc2CSCCSCc2nccn2Cc2ccccc2)cc1 ?
29.9

Report growth inhibition for C/C(=C/CCl)[N+](=O)[O-] please.
14.1

Can you look up the measured growth inhibition of N#C/C(=C\c1c(Cl)cccc1Cl)c1nc(-c2ccc(Cl)cc2)cs1 for me?
-32.9

Endpoint output: growth inhibition of CCc1cc(CCC(=O)Nc2ccccc2[N+](=O)[O-])[nH]c(=S)n1 . Value?
-11.2

Tell me the measured growth inhibition of C=CCCCCCCCCCCCCCCCCCC , please.
6.2

Please give the measured growth inhibition for this molecule: O=C(O)CC(C(=O)O)=C1CCCCC1
-0.3

Which value of growth inhibition has been reported for CCOC(=O)/C(C#N)=C1/Sc2c(ncn(/N=C/c3ccc(OC)cc3)c2=O)N1c1ccccc1 in the records?
4.4

May I ask what growth inhibition has been recorded for CCOC(=O)/C(C#N)=C/c1c(-c2ccccc2)nn2ccccc12 ?
20.6

Entry CC(C)=NNC(=O)c1ccccc1CC(O)(c1ccccc1)c1ccccc1 : reported growth inhibition = ?
15.2

Any idea what growth inhibition was measured for COCCn1nc(-c2ccc(Cl)cc2)c(-c2ccc(Cl)cc2)c(C(C)=O)c1=O ?
-7.85

Record request: growth inhibition value, item COc1ccccc1NC(=O)/C(=C\n1c(=S)[nH]c2ccc([N+](=O)[O-])cc21)C(C)=O
-4.15

Quick one: growth inhibition for COC1OC(COS(=O)(=O)c2ccc(C)cc2)C2OC(C)(C)OC2C1OS(=O)(=O)c1ccc(C)cc1 (centres undefined) ?
7.1

Record request: growth inhibition value, item CC(=O)OC1C(C2COCO2)OCOC1C1COCO1 (centres undefined)
-18

Param item = CCOC(=O)c1cnc(-n2[nH]c(C)c(CCO)c2=O)[nH]c1=O ; retrieve measured growth inhibition.
-37

Ref: PubChem BioAssay (NCI)
